Test system: HEK293T (UBE3A T485A transfected, BAR Wnt reporter)
procedureSummary: Wnt reporter firefly/Renilla luciferase ratio relative to plate median (fold (linear ratio)); higher = more Wnt/beta-catenin reporter activation
measurementConditions: concentration: 10 uM; 24 h
Over roughly 1,100 compounds, “Wnt reporter firefly/Renilla luciferase ratio relative to plate median” has its median near 1.1; the highest 2% begin near 1.6. What follows is part of a selection rich in the highest values, with near analogues and random picks from the rest.
Please go through the items and note down their Wnt reporter firefly/Renilla luciferase ratio.
Give your answer as a number; write no unit.

Ask | Given CCC(=O)Nc1ccc(Cl)c(Cl)c1 , report its Wnt reporter firefly/Renilla luciferase ratio on HEK293T (UBE3A T485A transfected, BAR Wnt reporter).
Reply | 1.25

Ask | Given CCOP(=S)(OCC)SCSC(C)(C)C , report its Wnt reporter firefly/Renilla luciferase ratio on HEK293T (UBE3A T485A transfected, BAR Wnt reporter).
Reply | 1.16

Ask | Given CCC(C)n1c(=O)[nH]c(C)c(Br)c1=O (stereo not given) , report its Wnt reporter firefly/Renilla luciferase ratio on HEK293T (UBE3A T485A transfected, BAR Wnt reporter).
Reply | 0.904

Ask | Given N#CC(Br)(Br)C(N)=O [2,2-Dibromo-3-nitrilopropionamide] , report its Wnt reporter firefly/Renilla luciferase ratio on HEK293T (UBE3A T485A transfected, BAR Wnt reporter).
Reply | 1.3

Ask | Given CO/C=C(/C(=O)OC)c1ccccc1Oc1cc(Oc2ccccc2C#N)ncn1 , report its Wnt reporter firefly/Renilla luciferase ratio on HEK293T (UBE3A T485A transfected, BAR Wnt reporter).
Reply | 0.786

Ask | Given COc1cnc(OC)n2nc(NS(=O)(=O)c3c(OCC(F)F)cccc3C(F)(F)F)nc12 , report its Wnt reporter firefly/Renilla luciferase ratio on HEK293T (UBE3A T485A transfected, BAR Wnt reporter).
Reply | 1.38

Ask | Given c1ccc(N=Nc2ccccc2)cc1 , report its Wnt reporter firefly/Renilla luciferase ratio on HEK293T (UBE3A T485A transfected, BAR Wnt reporter).
Reply | 1.38

Ask | Given CCC(=NOC/C=C/Cl)C1=C(O)CC(C2CCOCC2)CC1=O (stereo not given) , report its Wnt reporter firefly/Renilla luciferase ratio on HEK293T (UBE3A T485A transfected, BAR Wnt reporter).
Reply | 1.08

Ask | Given [Cl-].[Cl-].[Hg+2] [Mercuric chloride] , report its Wnt reporter firefly/Renilla luciferase ratio on HEK293T (UBE3A T485A transfected, BAR Wnt reporter).
Reply | 1.69

Ask | Given ClC1=C(Cl)C(Cl)(Cl)C(Cl)=C1Cl , report its Wnt reporter firefly/Renilla luciferase ratio on HEK293T (UBE3A T485A transfected, BAR Wnt reporter).
Reply | 1.02

Ask | Given CC(C)(C)C(O)(CCc1ccc(Cl)cc1)Cn1cncn1 (stereo not given) , report its Wnt reporter firefly/Renilla luciferase ratio on HEK293T (UBE3A T485A transfected, BAR Wnt reporter).
Reply | 0.972

Ask | Given CCCCCCCCCC(CC)c1ccc(S(=O)(=O)O)cc1.OCCN(CCO)CCO (stereo not given) [Dodecylbenzene sulfonate triethanolamine(1:1)] , report its Wnt reporter firefly/Renilla luciferase ratio on HEK293T (UBE3A T485A transfected, BAR Wnt reporter).
Reply | 1.13

Ask | Given CCCCC(CC)COC(=O)c1ccccc1C(=O)OCC(CC)CCCC (stereo not given) [Di(2-ethylhexyl) phthalate] , report its Wnt reporter firefly/Renilla luciferase ratio on HEK293T (UBE3A T485A transfected, BAR Wnt reporter).
Reply | 1.09

Ask | Given COC(=CC(N)=O)C(C)C(C=Cc1csc(-c2csc(C(C)C=CC=CC(C)C)n2)n1)OC (stereo not given) , report its Wnt reporter firefly/Renilla luciferase ratio on HEK293T (UBE3A T485A transfected, BAR Wnt reporter).
Reply | 0.492

Ask | Given CN(C)C(=O)Nc1cccc(C(F)(F)F)c1 , report its Wnt reporter firefly/Renilla luciferase ratio on HEK293T (UBE3A T485A transfected, BAR Wnt reporter).
Reply | 0.996

Ask | Given CCCCN(CCCC)SN(C)C(=O)Oc1cccc2c1OC(C)(C)C2 , report its Wnt reporter firefly/Renilla luciferase ratio on HEK293T (UBE3A T485A transfected, BAR Wnt reporter).
Reply | 1.07

Ask | Given Cc1ccc([N+](=O)[O-])cc1C , report its Wnt reporter firefly/Renilla luciferase ratio on HEK293T (UBE3A T485A transfected, BAR Wnt reporter).
Reply | 1.19

Ask | Given Nc1ccc([N+](=O)[O-])cc1 , report its Wnt reporter firefly/Renilla luciferase ratio on HEK293T (UBE3A T485A transfected, BAR Wnt reporter).
Reply | 0.602

Ask | Given CON(C)C(=O)Nc1ccc(Cl)c(Cl)c1 , report its Wnt reporter firefly/Renilla luciferase ratio on HEK293T (UBE3A T485A transfected, BAR Wnt reporter).
Reply | 1.17

Ask | Given CCOP(=O)(NC(C)C)Oc1ccc(SC)c(C)c1 (stereo not given) , report its Wnt reporter firefly/Renilla luciferase ratio on HEK293T (UBE3A T485A transfected, BAR Wnt reporter).
Reply | 0.83

###

Tested on: HEK293T (UBE3A T485A transfected, BAR Wnt reporter)
procedureSummary: Wnt reporter firefly/Renilla luciferase ratio relative to plate median (fold (linear ratio)); higher = more Wnt/beta-catenin reporter activation
measurementConditions: concentration: 1 uM; 24 h
Whole data set: some 1,100 compounds, median “Wnt reporter firefly/Renilla luciferase ratio relative to plate median” near 1.1, cut for the highest 2% near 1.6. The list comes from a sample in which the highest values are over-represented; it also holds close analogues and randomly drawn compounds.
Assign class by Wnt reporter firefly/Renilla luciferase ratio: not lower than 1 means TRUE; lower than 1 means FALSE.

Ask | Entry C/C(=N\C#N)N(C)Cc1ccc(Cl)nc1 : is its Wnt reporter firefly/Renilla luciferase ratio no less than 1?
Reply | FALSE

Ask | Entry CS(=O)(=O)c1ccc(C(=O)C2C(=O)CCCC2=O)c([N+](=O)[O-])c1 : is its Wnt reporter firefly/Renilla luciferase ratio no less than 1?
Reply | FALSE

Ask | Entry N#Cc1cc(Br)c(O)c(Br)c1 : is its Wnt reporter firefly/Renilla luciferase ratio no less than 1?
Reply | FALSE

Ask | Entry Cn1cc(-c2ccccc2)c(=O)c(-c2cccc(C(F)(F)F)c2)c1 : is its Wnt reporter firefly/Renilla luciferase ratio no less than 1?
Reply | FALSE

Ask | Entry C=CCc1ccc2c(c1)OCO2 : is its Wnt reporter firefly/Renilla luciferase ratio no less than 1?
Reply | TRUE

Ask | Entry COC(=CC(N)=O)C(C)C(C=Cc1csc(-c2csc(C(C)C=CC=CC(C)C)n2)n1)OC (centres undefined) : is its Wnt reporter firefly/Renilla luciferase ratio no less than 1?
Reply | FALSE

Ask | Entry CCc1nn(C)c(C(=O)NCc2ccc(C(C)(C)C)cc2)c1Cl : is its Wnt reporter firefly/Renilla luciferase ratio no less than 1?
Reply | FALSE

Ask | Entry CO/N=C(/C1=NOCCO1)c1ccccc1Oc1ncnc(Oc2ccccc2Cl)c1F : is its Wnt reporter firefly/Renilla luciferase ratio no less than 1?
Reply | FALSE

Ask | Entry ClC1=C(Cl)C2(Cl)C3C4OC4C(Cl)C3C1(Cl)C2(Cl)Cl (centres undefined) [Heptachlor epoxide] : is its Wnt reporter firefly/Renilla luciferase ratio no less than 1?
Reply | TRUE

Ask | Entry CCc1cccc(CC)c1N(COC)C(=O)CCl : is its Wnt reporter firefly/Renilla luciferase ratio no less than 1?
Reply | FALSE

Ask | Entry COC(=O)Nc1nc2ccccc2[nH]1 : is its Wnt reporter firefly/Renilla luciferase ratio no less than 1?
Reply | TRUE

Ask | Entry CCOC(=O)COc1cc(-c2nn(C)c(OC(F)F)c2Cl)c(F)cc1Cl : is its Wnt reporter firefly/Renilla luciferase ratio no less than 1?
Reply | TRUE

Ask | Entry CCC(C)c1cc([N+](=O)[O-])cc([N+](=O)[O-])c1O (centres undefined) : is its Wnt reporter firefly/Renilla luciferase ratio no less than 1?
Reply | FALSE

###

System: HEK293T (UBE3A T485A transfected, BAR Wnt reporter)
procedureSummary: Wnt reporter firefly/Renilla luciferase ratio relative to plate median (fold (linear ratio)); higher = more Wnt/beta-catenin reporter activation
measurementConditions: concentration: 1 uM; 24 h
Whole data set: some 1,100 compounds, median “Wnt reporter firefly/Renilla luciferase ratio relative to plate median” near 1.1, cut for the highest 2% near 1.6. Many of the other results were omitted from the sample, so the highest values are more common in it than they were.
Please go through the items and note down their Wnt reporter firefly/Renilla luciferase ratio.
Give your answer as a number; write no unit.

Ask | Report measured Wnt reporter firefly/Renilla luciferase ratio; entry is CCCCCCOC(=O)c1ccccc1C(=O)OCCCCCC [Dihexyl phthalate]
Reply | 0.965

Ask | Report measured Wnt reporter firefly/Renilla luciferase ratio; entry is C=C(C)[C@H]1Cc2c(ccc3c2O[C@@H]2COc4cc(OC)c(OC)cc4[C@@H]2C3=O)O1
Reply | 0.7

Ask | Report measured Wnt reporter firefly/Renilla luciferase ratio; entry is NC(=O)[O-].[NH4+] [Ammonium carbamate]
Reply | 0.94

Ask | Report measured Wnt reporter firefly/Renilla luciferase ratio; entry is CCCCOC(=O)c1ccccc1C(=O)O [Monobutyl phthalate]
Reply | 2.24

Ask | Report measured Wnt reporter firefly/Renilla luciferase ratio; entry is Clc1ccccc1Cl
Reply | 1.01

Ask | Report measured Wnt reporter firefly/Renilla luciferase ratio; entry is CC(C)C1(C)N=C(c2ncccc2C(=O)O)NC1=O (centres undefined)
Reply | 1.04

Ask | Report measured Wnt reporter firefly/Renilla luciferase ratio; entry is CCCCC(C#N)(Cn1cncn1)c1ccc(Cl)cc1 (centres undefined)
Reply | 0.933

Ask | Report measured Wnt reporter firefly/Renilla luciferase ratio; entry is CCCCCOC(=O)c1ccccc1C(=O)OCCCCC [Dipentyl phthalate]
Reply | 1.36

Ask | Report measured Wnt reporter firefly/Renilla luciferase ratio; entry is CCCN(CCOc1c(Cl)cc(Cl)cc1Cl)C(=O)n1ccnc1
Reply | 0.904

Ask | Report measured Wnt reporter firefly/Renilla luciferase ratio; entry is COc1cccc(NCC(F)Cn2c3ccc(Br)cc3c3cc(Br)ccc32)c1 (centres undefined)
Reply | 1.28

Ask | Report measured Wnt reporter firefly/Renilla luciferase ratio; entry is CCCCCCCCOC(=O)c1ccccc1C(=O)OCCCCCCCC [Dioctyl phthalate]
Reply | 1.11

Ask | Report measured Wnt reporter firefly/Renilla luciferase ratio; entry is COc1cc(OC)nc(NC(=O)[N-]S(=O)(=O)c2ncccc2OCC(F)(F)F)n1.[Na+] [Trifloxysulfuron-sodium]
Reply | 1.23

Ask | Report measured Wnt reporter firefly/Renilla luciferase ratio; entry is CN(C)C(=O)Cl [Dimethylcarbamoyl chloride]
Reply | 1.32

Ask | Report measured Wnt reporter firefly/Renilla luciferase ratio; entry is ClC1=C(Cl)C2(Cl)C3C(Cl)C=CC3C1(Cl)C2(Cl)Cl (centres undefined)
Reply | 1.07

Ask | Report measured Wnt reporter firefly/Renilla luciferase ratio; entry is Clc1cccc(Cl)c1Cl
Reply | 1.1

Ask | Report measured Wnt reporter firefly/Renilla luciferase ratio; entry is CC(C)Oc1cccc(NC(=O)c2ccccc2C(F)(F)F)c1
Reply | 1.01

Ask | Report measured Wnt reporter firefly/Renilla luciferase ratio; entry is CCCOC/C(=N\c1ccc(Cl)cc1C(F)(F)F)n1ccnc1
Reply | 1.53

Ask | Report measured Wnt reporter firefly/Renilla luciferase ratio; entry is Oc1ccc(Cl)cc1Cl
Reply | 1.15

Ask | Report measured Wnt reporter firefly/Renilla luciferase ratio; entry is CCC(=NOC/C=C/Cl)C1=C(O)CC(C2CCOCC2)CC1=O (centres undefined)
Reply | 1.12
